# target.under.test: Chicken brain tubulin (CBTb)
# method.description: MDL fluorescence dilution titration, chicken brain tubulin
# condition.parameters: 1 µM tubulin, PM buffer, 5% DMSO, 25°C; ± standard error of fit
reported.property: Kd (nM)
Enter your answer as a number in nM; do not include the unit.

Give its Kd value. Item: COc1ccc(OC)c(C(=O)/C(C)=C/c2ccc(N(C)C)cc2)c1
510

---

# target.under.test: BTb, colchicine site (Bos taurus)
# Construct: from tissue; host or cells: mammalian brain: either rat brain (purified in house) or bovine brain (bought from Cytoskeleton #HTS02-A or Sigma-Aldrich #T4925)
# method.description: Single-point MDL competitive binding inhibition screen, brain tubulin
# Design: species or system bovine or rat
Form field: pKd (one value per entry).
// returns pKd (minus log10 of molar concentration), number only

Reference set (3 entries):
compound: COc1ccc(S(=O)(=O)Nc2cccnc2Nc2ccc(O)cc2)cc1 [ABT-751]
pKd: 5.24

compound: COc1cc([C@@H]2c3cc4c(cc3[C@H](O)[C@H]3COC(=O)[C@H]23)OCO4)cc(OC)c1OC [Podophyllotoxin]
pKd: 6.14

compound: CCC[C@H](Nc1nc(-c2ccc(NC(=O)NCC)c(OC)c2)ncc1C)c1cccnc1 [Lexibulin]
pKd: 5.96

Find pKd (BTb, colchicine site (Bos taurus)) for the entry COc1cc2c(c(OC)c1OC)-c1cc3c(cc1C(OC(C)=O)[C@H]1COC(=O)[C@@H]1C2)OCO3 (stereo partly shown) [Steganacin]
5.35

---

# target.under.test: BTb, colchicine site (Bos taurus, UniProt Q6B856)
# Construct: from tissue; host or cells: mammalian brain: either rat brain (purified in house) or bovine brain (bought from Cytoskeleton #HTS02-A or Sigma-Aldrich #T4925)
# method.description: Single-point MDL competitive binding inhibition screen, brain tubulin
# Design: species or system bovine or rat
# condition.parameters: read-out: BTb % (inhibition of MDL binding)
reported.property: inhibition at 50 µM (%)
Give a bare numeral; the unit % is implied.

// known answers, use as guide
compound: COC(=O)Nc1nc2ccc(C(=O)c3cccs3)cc2[nH]1 [Nocodazole]
units.symbol: %
inhibition at 50 µM: 85
--
compound: COc1cc2c(c(OC)c1OC)-c1cc3c(cc1C(OC(C)=O)[C@H]1COC(=O)[C@@H]1C2)OCO3 (some centres unmarked) [Steganacin]
units.symbol: %
inhibition at 50 µM: 50
--
compound: COc1cc([C@@H]2c3cc4c(cc3[C@H](O)[C@H]3COC(=O)[C@H]23)OCO4)cc(OC)c1OC [Podophyllotoxin]
units.symbol: %
inhibition at 50 µM: 90

Note: attention shifts to another entry.
What inhibition at 50 µM appears in the records for this compound with BTb, colchicine site (Bos taurus, UniProt Q6B856)? COc1ccc(/C=C\c2cc(OC)c(OC)c(OC)c2)cc1O [Combretastatin A4, cis-Combretastatin A4]
92

---

# target.under.test: CeTb, colchicine site (Gallus gallus)
# method.description: Single-point MDL competitive binding inhibition screen, erythrocyte tubulin
# Set-up: species or system chicken (Gallus gallus)
# condition.parameters: 50 µM drug, 1 µM tubulin, 5 µM MDL, single point
Recorded measurements of CeTb % (inhibition of MDL binding), one per entry
Your answer is read as %, so omit the unit and give the number.

structure.as.smiles: COc1ccc(/C=C\c2cc(OC)c3c(c2)OCO3)cc1O
numeric.readout: 81

Please tell me: CeTb % (inhibition of MDL binding) of COC(=O)Nc1nc2ccc(C(=O)c3ccccc3)cc2[nH]1 , system CeTb, colchicine site (Gallus gallus)?
90

Form field - read-out: CeTb % (inhibition of MDL binding); system: CeTb, colchicine site (Gallus gallus); submitted item: COc1ccc(NS(=O)(=O)c2c(F)c(F)c(F)c(F)c2F)cc1F
4

Form field - read-out: CeTb % (inhibition of MDL binding); system: CeTb, colchicine site (Gallus gallus); submitted item: COc1ccc2[nH]c(C(=O)c3ccccc3)cc2c1
73

// fetch CeTb, colchicine site (Gallus gallus) CeTb % (inhibition of MDL binding) for CN(C)c1ccc(NS(=O)(=O)c2c(F)c(F)c(F)c(F)c2F)cc1
2

Notebook: pull reported CeTb % (inhibition of MDL binding) for CeTb, colchicine site (Gallus gallus), entry Oc1ccc(/C=C/c2cc(O)cc(O)c2)cc1
4

Missing value: CeTb % (inhibition of MDL binding), CeTb, colchicine site (Gallus gallus), entry CCC[C@H](Nc1nc(-c2ccc(NC(=O)NCC)c(OC)c2)ncc1C)c1cccnc1 . Fill in?
6

Give CeTb, colchicine site (Gallus gallus) CeTb % (inhibition of MDL binding) for CC(C)=CCC/C(C)=C/CC/C(C)=C/Cc1c(O)c2ccccc2oc1=O
2

Item CCOC(=O)Cc1cc(O)cc(O)c1C(C)=O with CeTb, colchicine site (Gallus gallus) - CeTb % (inhibition of MDL binding)?
2
